Experiment: Thermodynamic aqueous solubility of the compound in PBS buffer at pH 6.8 after 24 hrs by HPLC analysis
Assay type: physicochemical
Conditions: PBS buffer, pH 6.8; read-out: Therm_solubility
valueType: log10(solubility thermodynamic at 24 h) (log10 of the value in µg/mL)
Log scale reminder: solubility thermodynamic at 24 h in µg/mL, then log10 taken.

Consider the reported log10(solubility thermodynamic at 24 h) for these compounds:
compound | log10(solubility thermodynamic at 24 h)
C=CC(=O)N1CC[C@H](N2C(=O)N(C(C)C)Cc3cnc(Nc4ccc(N5CCN(C)CC5)cc4OC)nc32)C1 | 3.40
C=CC(=O)N1CC[C@H](N2C(=O)N(c3ccccc3)Cc3cnc(Nc4ccc(C5CCN(C)CC5)cc4)nc32)C1 | 2.49
C=CC(=O)N1CC[C@H](N2C(=O)N(c3ccccc3)Cc3cnc(Nc4ccc(N5CCN(C)CC5)c(OC)c4)nc32)C1 | 2.41
C=CC(=O)N1CC[C@H](N2C(=O)N(c3ccccc3)Cc3cnc(Nc4ccc(N5CCN(C)CC5)cc4)nc32)C1 | 2.99
C=CC(=O)N1CC[C@H](N2C(=O)N(c3ccccc3)Cc3cnc(Nc4ccccc4)nc32)C1 | 0.54

Lab note: C=CC(=O)N1CC[C@H](N2C(=O)N(c3ccccc3)Cc3cnc(Nc4cccc(N5CCN(C)CC5)c4)nc32)C1 gave log10(solubility thermodynamic at 24 h) of 2.85

# compound C=CC(=O)NC1CCC(N2C(=O)N(Cc3ccccc3)Cc3cnc(Nc4ccc(N5CCN(C)CC5)cc4OC)nc32)CC1 (configuration not stated) ; its log10(solubility thermodynamic at 24 h) = 1.27
